Listed next: entries and their corresponding koff.
Molecular target: T1, human 5T4ECDHis (mature protein of SEQ ID NO: 99) (human, UniProt Q13641 32-355)
T1 construct: ECD of human 5T4 (aa 1-355 of Uniprot Q13641) with C-terminal His tag; residues 1-31 are the signal peptide; also called ECD of human 5T4 with a C-terminal His tag
T1 sequence: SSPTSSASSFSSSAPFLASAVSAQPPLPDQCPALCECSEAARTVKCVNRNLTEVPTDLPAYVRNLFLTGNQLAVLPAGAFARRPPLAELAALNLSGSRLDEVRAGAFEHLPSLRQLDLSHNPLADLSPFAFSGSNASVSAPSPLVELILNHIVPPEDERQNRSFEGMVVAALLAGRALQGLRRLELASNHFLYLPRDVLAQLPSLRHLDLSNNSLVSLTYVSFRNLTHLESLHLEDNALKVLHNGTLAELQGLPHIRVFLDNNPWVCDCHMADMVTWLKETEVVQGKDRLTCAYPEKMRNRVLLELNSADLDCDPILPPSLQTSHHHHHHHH
Assay: BLI, antibody on anti-human IgG Fc Capture biosensor, antigen in solution
measured attribute: koff (s⁻¹)

binder="IgG1-5T4-106-FEAR (antibody, V domains shown, Monospecific, bivalent human IgG1 kappa with L234F, L235E, D265A, K409R (FEAR)) VH: EVQLVQSGAEVKKPGESLKISCKGSGYRFTSYWIGWVRQMPGKGLEWMGIIYPGDSDARYSPSFQGQVTISADKSISTAYLQWSSLKASDTGMYYCARSVLFDYWGQGTLVTVSS VL: AIQLTQSPSSLSASVGDRVTITCRASQGISSALAWYQQKPGKAPKLLIYDVSNLESGVPSRFSGSGSGTDFTLTISSLQPEDFATYYCQQFNSYPHTFGQGTKLEIK" measured_attribute=koff quantitative_result=0.0012
binder="IgG1-5T4-207-FEAR (antibody, V domains shown, Monospecific, bivalent IgG1 FEAR) VH: QVQLQQWGAGLLKPSETLSLTCAVYGGSFSGYYWTWIRQPPGKGLEWIGEIDHSESTNYNPSLKSRVTISVDTSKNQFSLKLSSVTAADTAVYYCAGWFGELYHYYYGMDVWGQGTTVTVSS VL: EIVLTQSPATLSLSPGERATLSCRASQSVSSYLAWYQQKPGQAPRLLIYDASNRATGIPARFSGSGSGTDFTLTISSLEPEDFAVYYCQQRSNWPLTFGGGTKVEIKR" measured_attribute=koff quantitative_result=0.00068
binder="IgG1-5T4-226-FEAR (antibody, V domains shown, Monospecific, bivalent human IgG1 kappa with L234F, L235E, D265A, K409R (FEAR); also called IgG1-5T4-226-FEAR-FITC) VH: QVQLQQWGAGLLKPSETLSLTCAVYGGSFSGYYWSWIRQPPGKGLEWIGEIDHSGSTNYNPSLKSRVTISVDTSKNQFSLKLSSVTAADTAVYYCAAWFGELWDYYYGMDVWGQGTTVTVSS VL: EIVLTQSPATLSLSPGERATLSCRASQSVSSFLAWYQQKPGQAPRLLIYDASNRATGIPARFSGSGSGTDFTLTISSLEPEDFAVYYCQQRSNWPLTFGQGTRLEIK" measured_attribute=koff quantitative_result=0.00081
binder="IgG1-5T4-H8-FEAR (antibody, V domains shown, Based on 5T4 antibody H8 from Wyeth (WO 2007/106744); IgG1 with L234F, L235E, D265A, K409R (FEAR); also called IgG1-5T4-HS-FEAR; IgG1-5T4-H8-FEAR-FITC) VH: EVQLQQSGPDLVKPGASVKISCKASGYSFTGYYMHWVKQSHGKSLEWIGRINPNNGVTLYNQKFKDKAILTVDKSSTTAYMELRSLTSEDSAVYYCARSTMITNYVMDYWGQVTSVTVSS VL: SIVMTQTPTFLLVSAGDRVTITCKASQSVSNDVAWYQQKPGQSPTLLISYTSSRYAGVPDRFIGSGYGTDFTFTISTLQAEDLAVYFCQQDYNSPPTFGGGTKLEIK" measured_attribute=koff quantitative_result=0.00029
